All values here come from the supplement of paper PMC10065799.

- tgt: Grb2 SH2 (UniProt P62993)
- protocol: SH2 binding enrichment of the phosphorylated peptide, bacterial display (enrichment ratio); higher = better substrate or ligand; peptides without Tyr show the background;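 note: peptide library displayed on the E. coli surface as eCPX fusions, selected cells deep-sequenced, score is each peptide's frequency after selection divided by its frequency in the input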
reported endpoint: SH2 binding enrichment

>>> print(df.to_string())
           sequence_string       reported_endpoint  recorded_measurement
0  TAGEPYHDIRF [BAP1_Y223]  SH2 binding enrichment                 0.899

1: IVLRSYPASDH [NID2_Y449_G453D]
2: VMIFAYLLHRG [PTEN_Y138_C136Y_YF]
Lookup: Lower value of SH2 binding enrichment belongs to which: 1 or 2 ? Mark your answer with the label of the selected entry.
Found: 1

P: REIIAYQPYGK [PRKCG_Y529_P524R]
Q: DLDLTYIYPNI [PTEN_Y27]
Lookup: Between P and Q , whose recorded SH2 binding enrichment is greater? Let me know the label of the one you choose.
Found: Q
